- Tested on: Human alphaherpesvirus 1
- assay.details: Minimum inhibitory concentration against Herpes simplex virus 1(KOS)
- Assay type: functional
recorded.endpoint: MIC

Q: Data request, read-out MIC, for Cl.Cl.Cn1cc(NC(=O)c2cc(NC(=O)CCCCC(=O)Nc3cc(C(=O)Nc4cc(C(=O)NCCC(=N)N)n(C)c4)n(C)c3)cn2C)cc1C(=O)NCCC(=N)N
A: > 10 µg/mL

Q: Data request, read-out MIC, for Nc1nccc2c1ncn2[C@@H]1C[C@H](CO)[C@@H](O)[C@H]1O
A: > 400 µg/mL

Q: Data request, read-out MIC, for Cl.Cl.Cn1cc(NC(=O)c2cc(NC(=O)CCCCCCCCCCC(=O)Nc3cc(C(=O)Nc4cc(C(=O)NCCC(=N)N)n(C)c4)n(C)c3)cn2C)cc1C(=O)NCCC(=N)N
A: > 10 µg/mL

Q: Data request, read-out MIC, for Cl.Cl.Cn1cc(NC(=O)c2cc(NC(=O)Nc3cc(C(=O)Nc4cc(C(=O)NCCC(=N)N)n(C)c4)n(C)c3)cn2C)cc1C(=O)NCCC(=N)N
A: > 10 µg/mL

Q: Data request, read-out MIC, for NC(=O)c1ncn([C@@H]2O[C@H](CO)[C@@H](O)[C@H]2O)n1
A: > 400 µg/mL

Q: Data request, read-out MIC, for Cl.Cl.Cn1cc(NC(=O)c2cc(NC(=O)CCCCCC(=O)Nc3cc(C(=O)Nc4cc(C(=O)NCCC(=N)N)n(C)c4)n(C)c3)cn2C)cc1C(=O)NCCC(=N)N
A: 150 µg/mL

Q: Data request, read-out MIC, for Cl.Cl.Cn1cc(NC(=O)c2cc(NC(=O)CCCCCCCC(=O)Nc3cc(C(=O)Nc4cc(C(=O)NCCC(=N)N)n(C)c4)n(C)c3)cn2C)cc1C(=O)NCCC(=N)N
A: > 40 µg/mL

Q: Data request, read-out MIC, for Cl.Cl.Cn1cc(NC(=O)c2cc(NC(=O)CCCC(=O)Nc3cc(C(=O)Nc4cc(C(=O)NCCC(=N)N)n(C)c4)n(C)c3)cn2C)cc1C(=O)NCCC(=N)N
A: > 200 µg/mL

Q: Data request, read-out MIC, for Cl.Cl.Cn1cc(NC(=O)c2cc(NC(=O)CCCCCCC(=O)Nc3cc(C(=O)Nc4cc(C(=O)NCCC(=N)N)n(C)c4)n(C)c3)cn2C)cc1C(=O)NCCC(=N)N
A: > 10 µg/mL

Q: Data request, read-out MIC, for Cl.Cl.Cn1cc(NC(=O)CCC(=O)Nc2cc(C(=O)NCCC(=N)N)n(C)c2)cc1C(=O)NCCC(=N)N
A: > 100 µg/mL

Q: Data request, read-out MIC, for Nc1ncnc2c1ccn2[C@@H]1O[C@H](CO)[C@@H](O)[C@H]1O
A: > 0.4 µg/mL

Q: Data request, read-out MIC, for Cl.Cl.Cn1cc(NC(=O)c2cc(NC(=O)CCCCCCCCC(=O)Nc3cc(C(=O)Nc4cc(C(=O)NCCC(=N)N)n(C)c4)n(C)c3)cn2C)cc1C(=O)NCCC(=N)N
A: > 10 µg/mL

Q: Data request, read-out MIC, for Cl.Cl.Cn1cc(NC(=O)c2cc(NC(=O)CCCCCCCCCC(=O)Nc3cc(C(=O)Nc4cc(C(=O)NCCC(=N)N)n(C)c4)n(C)c3)cn2C)cc1C(=O)NCCC(=N)N
A: > 10 µg/mL

Q: Data request, read-out MIC, for Cl.Cl.Cn1cc(NC(=O)c2cc(NC(=O)CC(=O)Nc3cc(C(=O)Nc4cc(C(=O)NCCC(=N)N)n(C)c4)n(C)c3)cn2C)cc1C(=O)NCCC(=N)N
A: > 4 µg/mL

----------
- System: Vaccinia virus
- assay.details: Minimum inhibitory concentration against vaccinia virus in Vero cell cultures of experiment 2
- Type: functional
- condition.info: Orthopoxvirus vaccinia
Please assign False whenever MIC is at or above 20 µg/mL, and True whenever it is below.

Q: MIC strictly < 20 µg/mL for this molecule? Cl.Cl.Cn1cc(NC(=O)c2cc(NC(=O)CCCCCCC(=O)Nc3cc(C(=O)Nc4cc(C(=O)NCCC(=N)N)n(C)c4)n(C)c3)cn2C)cc1C(=O)NCCC(=N)N
A: True

Q: MIC strictly < 20 µg/mL for this molecule? Cl.Cl.Cn1cc(NC(=O)c2cc(NC(=O)CCCCCCCC(=O)Nc3cc(C(=O)Nc4cc(C(=O)NCCC(=N)N)n(C)c4)n(C)c3)cn2C)cc1C(=O)NCCC(=N)N
A: False

Q: MIC strictly < 20 µg/mL for this molecule? Nc1ncnc2c1ccn2[C@@H]1O[C@H](CO)[C@@H](O)[C@H]1O
A: True

Q: MIC strictly < 20 µg/mL for this molecule? Nc1nccc2c1ncn2[C@@H]1C[C@H](CO)[C@@H](O)[C@H]1O
A: True

Q: MIC strictly < 20 µg/mL for this molecule? Cl.Cl.Cn1cc(NC(=O)c2cc(NC(=O)CCCC(=O)Nc3cc(C(=O)Nc4cc(C(=O)NCCC(=N)N)n(C)c4)n(C)c3)cn2C)cc1C(=O)NCCC(=N)N
A: False

----------
- System: Calf thymus DNA
- assay.details: Relative binding constant to calf thymus DNA
- Format: nucleic-acid assay
- condition.info: Bos taurus
Answer each item with its documented Binding constant.
Answer with a number only, understood to be in M⁻¹.

Q: Quick check: Binding constant on Calf thymus DNA, item Cl.Cl.Cn1cc(NC(=O)c2cc(NC(=O)CCCCCCCCC(=O)Nc3cc(C(=O)Nc4cc(C(=O)NCCC(=N)N)n(C)c4)n(C)c3)cn2C)cc1C(=O)NCCC(=N)N ?
A: 1.7e+07

Q: Quick check: Binding constant on Calf thymus DNA, item Cl.Cl.Cn1cc(NC(=O)c2cc(NC(=O)Nc3cc(C(=O)Nc4cc(C(=O)NCCC(=N)N)n(C)c4)n(C)c3)cn2C)cc1C(=O)NCCC(=N)N ?
A: 5.6e+07

Q: Quick check: Binding constant on Calf thymus DNA, item Cl.Cl.Cn1cc(NC(=O)c2cc(NC(=O)CCCCCCCCCCC(=O)Nc3cc(C(=O)Nc4cc(C(=O)NCCC(=N)N)n(C)c4)n(C)c3)cn2C)cc1C(=O)NCCC(=N)N ?
A: 2.2e+07

Q: Quick check: Binding constant on Calf thymus DNA, item Cn1cc(NC(=O)c2cc(NC(=O)c3cc(NC=O)cn3C)cn2C)cc1C(=O)NCCC(=N)N [STALLIMYCIN] ?
A: 8e+06

Q: Quick check: Binding constant on Calf thymus DNA, item Cl.Cl.Cn1cc(NC(=O)c2cc(NC(=O)CCCCCCC(=O)Nc3cc(C(=O)Nc4cc(C(=O)NCCC(=N)N)n(C)c4)n(C)c3)cn2C)cc1C(=O)NCCC(=N)N ?
A: 2.5e+07

Q: Quick check: Binding constant on Calf thymus DNA, item Cl.Cl.Cn1cc(NC(=O)c2cc(NC(=O)CCCCCCCCCC(=O)Nc3cc(C(=O)Nc4cc(C(=O)NCCC(=N)N)n(C)c4)n(C)c3)cn2C)cc1C(=O)NCCC(=N)N ?
A: 1.9e+07

Q: Quick check: Binding constant on Calf thymus DNA, item Cn1cc(NC(=O)c2cc(NC(=O)CNC(=N)N)cn2C)cc1C(=O)NCCC(=N)N ?
A: 1.9e+07

Q: Quick check: Binding constant on Calf thymus DNA, item Cl.Cl.Cn1cc(NC(=O)c2cc(NC(=O)CCCCCC(=O)Nc3cc(C(=O)Nc4cc(C(=O)NCCC(=N)N)n(C)c4)n(C)c3)cn2C)cc1C(=O)NCCC(=N)N ?
A: 1.2e+07

Q: Quick check: Binding constant on Calf thymus DNA, item Cl.Cl.Cn1cc(NC(=O)c2cc(NC(=O)CCCC(=O)Nc3cc(C(=O)Nc4cc(C(=O)NCCC(=N)N)n(C)c4)n(C)c3)cn2C)cc1C(=O)NCCC(=N)N ?
A: 1.8e+07

Q: Quick check: Binding constant on Calf thymus DNA, item Cl.Cl.Cn1cc(NC(=O)c2cc(NC(=O)CC(=O)Nc3cc(C(=O)Nc4cc(C(=O)NCCC(=N)N)n(C)c4)n(C)c3)cn2C)cc1C(=O)NCCC(=N)N ?
A: 3.6e+07

Q: Quick check: Binding constant on Calf thymus DNA, item Cn1cc(NC(=O)c2cc(NC(=O)CCC(=O)Nc3cc(C(=O)Nc4cc(C(=O)NCCC(=N)N)n(C)c4)n(C)c3)cn2C)cc1C(=O)NCCC(=N)N ?
A: 7.2e+07

Q: Quick check: Binding constant on Calf thymus DNA, item Cl.Cl.Cn1cc(NC(=O)c2cc(NC(=O)CCCCC(=O)Nc3cc(C(=O)Nc4cc(C(=O)NCCC(=N)N)n(C)c4)n(C)c3)cn2C)cc1C(=O)NCCC(=N)N ?
A: 1e+07

Q: Quick check: Binding constant on Calf thymus DNA, item Cl.Cl.Cn1cc(NC(=O)c2cc(NC(=O)CCCCCCCC(=O)Nc3cc(C(=O)Nc4cc(C(=O)NCCC(=N)N)n(C)c4)n(C)c3)cn2C)cc1C(=O)NCCC(=N)N ?
A: 9e+06
